Data provenance: PubChem BioAssay (EPA / NIEHS)

Method: CCTE_Shafer_MEA_acute_cross_correlation_area: CCTE's Neural Acute Assay for Area of Cross Correlation, Shafer Lab (AID 2284024);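 also: rat primary cortical neuron networks on 48-well MEA at DIV 13 or 15 with 40 min exposure; area under pooled inter-electrode spike cross-correlation near zero lag as percent change from own baseline; curves fitted for loss of cross-correlation area so actives lower synchrony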
Activity calls are given as the source filed them. The calls were made as follows: active = hit-call score of the fitted dose curve at least 0.9, where 1 is the maximum; inactive = score below 0.9.
# output must be one of active, inactive

CCOP(=S)(Oc1cnc(C(C)(C)C)nc1)OC(C)C (configuration not stated) = inactive
CC(C)N(C(=O)SCC(Cl)=C(Cl)Cl)C(C)C = inactive
O=C(O)c1cc(Oc2ccc(C(F)(F)F)cc2Cl)ccc1[N+](=O)[O-] = inactive

Request: Please share the test call associated with COP(=O)(OC)C(O)C(Cl)(Cl)Cl (configuration not stated) .
Response: inactive

Request: Okay, and CCc1cccc(C)c1N(C(=O)CCl)C(C)COC (configuration not stated) ?
Response: inactive
